Source: the RNAGym collection of RNA variant scans (doi:10.7554/elife.80360)

B1: Hairpin Ribozyme (parent)
chain: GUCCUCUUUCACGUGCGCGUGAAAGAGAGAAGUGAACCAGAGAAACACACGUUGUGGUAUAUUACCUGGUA

Variants of: B1
Assay: self-cleavage, relative activity (ratio to wild type); higher = more cleavage; co-transcriptional
Readout Type: self-cleavage
In your answer, state the number alone without any accompanying words.

## Task Can you look up the measured self-cleavage of GUCCUCUUUCACCUGCGCGUGAAAGAGAGAAGUGAACCAGAGAGACACACGUUGUGGUAUAUUACCUGGUA for me?
## Result 0.127

## Task Try AUCCUCUUUCACGUGCGCGUGAAAGAGAGACGUGAACCAGAGAAACACACGUUGUGGUAUAUUACCUGGUA next.
## Result 0.132

## Task Same thing, different variant: GUCCUCUUUCACGUGCGCGUGAAAGAGAGAAGUGAACCAGAGAUACAAACGUUGUGGUAUAUUACCUGGUA
## Result 0.124

## Task What do we get for GUCCUCUUUCACGUGCGGGUGAAAGUGAGAAGUGAACCAGAGAAACACACGUUGUGGUAUAUUACCUGGUA ?
## Result 0.512

## Task Now the variant GUCCUCUUUCACCUGCGCGUGAAAGAGAGAAGUGAACCAGAGAAACACACGUUGUGGUGUAUUACCUGGUA
## Result 0.13

## Task GUCCUCUUUCACGUGCGCGUGAAAGAGAGAAGUGAACCAGAGAAACACAAGUUGUGGUAUAUUACCUGGUG ?
## Result 0.253

## Task Another variant to look at: GUCCUCUUUCACCUGCGCGUGAAAGAGAGAAGUGAACCAGAGAAACACACGUUGUGGUAUAUUGCCUGGUA
## Result 0.448

## Task Can you check GUCCUCUUUCACGUGCGCGUGAAAGUGAGAAGUGAACCAGAGAAACACACGUUGUGGUAUAUUACCUGGUU next?
## Result 0.433

## Task What do we get for GUCCUCUUUCACGUGCGCGUGAAAGAGACAAGUGAACCAGAGAAACGCACGUUGUGGUAUAUUACCUGGUA ?
## Result 0.0858

## Task Ok, now GUCCUCUUUCACGUGCGCGUGAAAGAAAGAAGUGAACCAGAGAAACACACGUUGUGGUAUAUGACCUGGUA
## Result 0.134

## Task Subsequent entry: GUCCUCUUUCACGUGCGCGUGAAAGAGAGAAGUGAACCAGAUAAACACAGGUUGUGGUAUAUUACCUGGUA
## Result 0.26

## Task What do we get for GUCCUCUUUCACAUGCGCGUGAAAGAGAGAAGUGAACCAGAGAAACACACGUUGUGGUAUAUUACCUGGUC ?
## Result 1.36

## Task Note, next up: GUCCUCUUUCACGUGCGCGUGAAAGAGAGAAGUGAACAAGUGAAACACACGUUGUGGUAUAUUACCUGGUA
## Result 0.286

## Task Also GUCCUCUUUCAGGUGCGCGUGAAAGAGAGAAGUGAACCAGAGAAACACACGUUGUGCUAUAUUACCUGGUA ?
## Result 0.165

## Task GUCCUCUUUCACAUGCGCGUGAAAGAGAGAAGUGAACCAGAGAAACACACGUUGUGGUAUAUUACCUAGUA ?
## Result 0.275

## Task Entry to check: GUCCUCAUUCACGUGCGCGUGAAACAGAGAAGUGAACCAGAGAAACACACGUUGUGGUAUAUUACCUGGUA
## Result 0.402

## Task Try the variant GUCCUCUUUCACGUGCGCGUGAAAGAGAGUAGUGAACCAGAGAAACAAACGUUGUGGUAUAUUACCUGGUA
## Result 0.209

## Task And GUCCUCUUUCACGUGCGCGUGAAAGAGAGAAGAGAACCAGAGAAACACACGUUGUAGUAUAUUACCUGGUA ?
## Result 0.239

## Task Also need GUCCUCUUUCACGUGCGCGUGAAAGAGAGAAGUGAACCAGAGAAACACACGUUGUGGUAUAGUACCUGGUG , thanks.
## Result 0.143

## Task Another variant to look at: GUCUUCUUUCACGUGCGCGUGAAAGACAGAAGUGAACCAGAGAAACACACGUUGUGGUAUAUUACCUGGUA
## Result 0.229

## Task Try this variant too: GUCCUCUUUCGCGUGCGCGUGAAAGAUAGAAGUGAACCAGAGAAACACACGUUGUGGUAUAUUACCUGGUA
## Result 0.248

## Task Again, but for GUCCUCUUUCACGUGCGUGUGAAAGAGAGAAGUGAACCAGAGAAACACAUGUUGUGGUAUAUUACCUGGUA
## Result 0.326
